QUANTITY: melting point

Some solved entries appear below for comparison.
{"columns": ["MOLECULE", "QUANTITY", "REPORTED"],
 "data": [
  ["Cc1ccc(NC(=N)Nc2ncccc2OCc2c(F)cccc2Cl)cc1", "melting point", "136 to 138 °C"],
  ["Cn1nc(-c2cnc3[nH]cc(C(=O)NC4CCCCC4)c3n2)c2ccc(Cl)cc21", "melting point", "321 to 323 °C"],
  ["Clc1cccnc1-c1ccc2[nH]nc(Nc3cc[nH]n3)c2c1", "melting point", "218 to 220 °C"],
  ["CCOc1ccc(C(=O)Nc2ccccc2)cc1Nc1cccc(C(F)(F)F)c1", "melting point", "184 to 185 °C"],
  ["Cc1c(NC(=O)c2ccc(-c3ccc(Cl)s3)cc2)ccc2cc(CN3CCCCCC3)cnc12", "melting point", "186 to 187 °C"],
  ["CCCCCC(O)CCCC(Cc1ccc(C=CC(=O)O)cc1)C(C)=O (stereo unspecified)", "melting point", "87 to 92 °C"]
]}

Ask | Quote melting point reported for CCNC(=O)c1c(Cl)cccc1[Si](C)(C)C1CCCCC1 please.
Reply | 111 to 113 °C

Ask | Quote melting point reported for CC(=O)C(=Cc1ccc(O)c(O)c1)C(C)=O please.
Reply | 134 to 137 °C

---

melting point values for the compounds below.

Some solved entries appear below for comparison.
{"columns": ["COMPOUND", "melting point"],
 "data": [
  ["O=C1NCC(Cc2ccccc2OCc2ccccc2)O1 (stereo not given)", "90 to 91 °C"],
  ["COc1ccc(-c2ccc(OC3SCC(OC(C)=O)C(OC(C)=O)C3OC(C)=O)cn2)cn1 (stereo not given)", "74 °C"],
  ["Cc1ccc(C(NC(c2ccccc2)c2ccccc2)P(O)O)cc1 (stereo not given)", "208 to 209 °C"],
  ["CC(=O)Oc1c2ccc(C(F)(F)F)cc2c(OC(C)=O)c2cc3ccccc3cc12", "285 to 288 °C"],
  ["CCN1CCCC(NC(=O)c2ccccc2Nc2ccnc3cc(Cl)ccc23)C1 (stereo not given)", "187 to 188 °C"],
  ["O=[N+]([O-])c1cc2nc(O)c(O)nc2c2[nH]ncc12", "> 300 °C"],
  ["CNC(=O)c1cc2c(Oc3ccc(OC(F)(F)F)cc3)cncc2s1", "132 to 133 °C"],
  ["COC(=O)c1[nH]c2c(C)ccc(C)c2c1S(C)=O (stereo not given)", "127 °C"],
  ["BrCCCCOc1ccc(OCc2ccccc2)cc1", "70 to 72 °C"]
]}

// next item, melting point requested
Ask | Quote melting point reported for O=C(NC1CCCCCCC1)NC1CCCCC1 please.
Reply | 194 °C

---

melting point values for the compounds below.

Some solved entries appear below for comparison.
{"columns": ["COMPOUND", "melting point"],
 "data": [
  ["O=C(O)c1ccc(NCCCCc2cccs2)cc1", "137 to 140 °C"],
  ["CCCCCCCCCCCCOCC(CO)(CO)COCCCCCCCCCCCC", "54 to 55 °C"]
]}

Ask | Quote melting point reported for CCC1(CC)c2cc(C)c(C)cc2C(CC)(CC)N1OC(C)=O please.
Reply | 80 to 82 °C

Ask | Quote melting point reported for COc1cc(Cn2cccc3ncnc2-3)ccc1C(=O)N(C(C)C)C1CCCCC1 please.
Reply | 98 to 100 °C

Ask | Quote melting point reported for CCCCOC1c2ccccc2C(=O)N(CC2CC2)C1(/C=C/C(=O)O)CNC(=O)OC(C)(C)C (stereo not given) please.
Reply | 229 to 230 °C

Ask | Quote melting point reported for Oc1cc(-c2ccc(Cl)cc2)nc2ccc(F)cc12 please.
Reply | > 350 °C

Ask | Quote melting point reported for CC(C)(C)c1cc(Br)c2cc(C(C)(C)C)cc(Br)c2c1 please.
Reply | 226 °C
